Tested on: J774A.1 (Mouse BALB/c monocyte macrophage cell line) cells
protocolText: LPS-induced TNF-α secretion inhibition in J774A.1 cells
Format: cell-based
testSettings: J774.A1, 1 μM compound, graded compared to taurodeoxycholic acid (positive control), read-out: TNF-α production inhibition grade
observationType: inhibition at 1 µM

[
  {
    "smilesNotation": "C[C@H](CCC(=O)N(CCN(C)C)CCS(=O)(=O)O)[C@H]1CC[C@H]2[C@@H]3CC[C@@H]4C[C@H](O)CC[C@]4(C)[C@H]3C[C@H](O)[C@]12C",
    "testValue": "< 20%"
  },
  {
    "smilesNotation": "CC[C@H]1[C@@H](O)[C@@H]2[C@H](C[C@H](O)[C@]3(C)[C@@H]([C@H](C)CCC(=O)N[C@H]4CCCC[C@H]4S(=O)(=O)O)CC[C@@H]23)[C@@]2(C)CC[C@@H](O)C[C@@H]12",
    "testValue": "< 20%"
  },
  {
    "smilesNotation": "C[C@H](CCC(=O)N[C@@H](CO)CS(=O)(=O)O)[C@H]1CC[C@H]2[C@@H]3CC[C@@H]4C[C@H](O)CC[C@]4(C)[C@H]3C[C@H](O)[C@]12C",
    "testValue": "< 20%"
  },
  {
    "smilesNotation": "CC[C@H]1[C@@H](O)[C@@H]2[C@H](CC[C@]3(C)[C@@H]([C@H](C)CCC(=O)N[C@H](Cc4ccccc4)CS(=O)(=O)O)CC[C@@H]23)[C@@]2(C)CC[C@@H](O)C[C@@H]12",
    "testValue": "< 20%"
  },
  {
    "smilesNotation": "C[C@H](CCC(=O)N1CCC[C@@H](S(=O)(=O)O)C1)[C@H]1CC[C@H]2[C@@H]3CC[C@@H]4CC(=O)CC[C@]4(C)[C@H]3CC[C@]12C",
    "testValue": "> 100%"
  }
]

###

Measured IC50 by item
System: U937 cells (human monocytic cell line)
protocolText: BzATP-induced IL-1β secretion inhibition in PMA-differentiated U937 cells
Assay type: cell-based
testSettings: U-937, U937 cells differentiated with PMA, read-out: IL-1β production inhibition grade (IC50)
observationType: IC50

[
  {
    "compound": "CC[C@H]1[C@@H](O)[C@@H]2[C@H](CC[C@]3(C)[C@@H]([C@H](C)CCC(=O)N(CCS(=O)(=O)O)Cc4ccccc4)CC[C@@H]23)[C@@]2(C)CC[C@@H](O)C[C@@H]12 [NC40005]",
    "systemName": "U937 cells (human monocytic cell line)",
    "testValue": "≥ 0.2 µM"
  },
  {
    "compound": "CC[C@H]1[C@@H](O)[C@@H]2[C@H](C[C@H](O)[C@]3(C)[C@@H]([C@H](C)CCC(=O)N[C@@H](CS(=O)(=O)O)C(C)C)CC[C@@H]23)[C@@]2(C)CC[C@@H](O)C[C@@H]12 [NC50017]",
    "systemName": "U937 cells (human monocytic cell line)",
    "testValue": "0.05 to 0.1 µM"
  },
  {
    "compound": "C[C@H](CCC(=O)N1CCC[C@H]1CS(=O)(=O)O)[C@H]1CC[C@H]2[C@@H]3CC[C@@H]4C[C@H](O)CC[C@]4(C)[C@H]3CC[C@]12C [NC10077]",
    "systemName": "U937 cells (human monocytic cell line)",
    "testValue": "< 0.05 µM"
  },
  {
    "compound": "C[C@H](CCC(=O)N[C@@H](Cc1ccccc1)CS(=O)(=O)O)[C@H]1CC[C@H]2[C@@H]3CC[C@@H]4C[C@H](O)CC[C@]4(C)[C@H]3CC[C@]12C [NC10065]",
    "systemName": "U937 cells (human monocytic cell line)",
    "testValue": "0.1 to 0.2 µM"
  },
  {
    "compound": "C[C@H](CCC(=O)N(CCS(=O)(=O)O)C1CCOCC1)[C@H]1CC[C@H]2[C@@H]3CC[C@@H]4C[C@H](O)CC[C@]4(C)[C@H]3CC[C@]12C [NC10059]",
    "systemName": "U937 cells (human monocytic cell line)",
    "testValue": "< 0.05 µM"
  }
]
